Parameter CC50: see the listing below.
Test: Cytotoxicity against mouse MC3T3-G2/PA6 cells assessed as cell viability by MTT assay
Format: cell-based

query.smiles: C[C@]12C3=CC[C@@H](c4ccoc4)[C@]3(C)CC[C@@H]1[C@@]1(C)C(=O)C=C[C@@]3(C)CO[C@@H]([C@H]2O)[C@H]13
qualifier: =
CC50 (µM): 15.9
--
query.smiles: COC(=O)[C@]1(C)C=CC(=O)[C@]2(C)[C@H]3CC[C@]4(C)C(=CC[C@H]4c4ccoc4)[C@]3(C)[C@H](O)[C@H](O)[C@H]21
qualifier: =
CC50 (µM): 72.9
--
query.smiles: C=C(C)C(=O)O[C@H]1C[C@H]2[C@](C)(C3=CC[C@@H](c4ccoc4)[C@@]31C)[C@H](O)[C@@H]1OC[C@]3(C)C=CC(=O)[C@@]2(C)[C@@H]13
qualifier: =
CC50 (µM): 21.9
--
query.smiles: CC(=O)O[C@H]1[C@@H](O)[C@@]2(C)C3=CC[C@@H](c4ccoc4)[C@]3(C)CC[C@@H]2[C@@]2(C)C(=O)[C@H]3O[C@H]3[C@]3(CO3)[C@H]12
qualifier: =
CC50 (µM): 48.4
--
query.smiles: C[C@]12C3=CC[C@@H](C4=CCOC4=O)[C@]3(C)CC[C@@H]1[C@@]1(C)C(=O)C=C[C@@]3(C)CO[C@@H]([C@H]2O)[C@H]13
qualifier: >
CC50 (µM): 50
